assay: Metabolic stability in human liver microsomes; type: in vitro ADME; conditions: 10 μM, 37° C., 30 min

Molecule: COC(=O)CCC(CP(=O)(O)O)C(=O)OC (stereo not drawn) [Compound 1]
Percentage remaining (%): 90
--
Molecule: CC(C)OC(=O)OC(C)OP(=O)(CC(CCC(=O)O)C(=O)OCC(=O)N(C)C)OC(C)OC(=O)OC(C)C (stereo not drawn) [Compound 26]
Percentage remaining (%): 92
--
Molecule: CCOC(=O)CCC(CP(=O)(OCOC(=O)C(C)(C)C)OCOC(=O)C(C)(C)C)C(=O)OCC (stereo not drawn) [Compound 18]
Percentage remaining (%): 1
--
Molecule: CC(C)OC(=O)OCOP(=O)(CC(CCC(=O)O)C(=O)OCC(=O)N(C)C)OCOC(=O)OC(C)C (stereo not drawn) [Compound 25]
Percentage remaining (%): 80
--
Molecule: CC(C)OC(=O)OC(C)OC(=O)C(CCC(=O)O)CP(=O)(OC(C)OC(=O)OC(C)C)OC(C)OC(=O)OC(C)C (stereo not drawn) [Compound 24]
Percentage remaining (%): 27
--
Molecule: CCOC(=O)CCC(CP(=O)(O)O)C(=O)OCC (stereo not drawn) [Compound 2]
Percentage remaining (%): 88
